# System: L1210 leukemia ip in BDF1 mice, survival T/C
# TEST_DESCRIPTION: NCI In Vivo Anticancer Drug Screen. Data for tumor model L1210 Leukemia (intraperitoneal) in B6D2F1 (BDF1) mice
# CONDITION_CONTEXT: endpoint: mean survival time; dose: 400.0 mg/kg/injection; schedule: Q01DX009 (ip); vehicle: saline; higher = longer survival
Toxic doses and inconclusive results are not listed.
MEASUREMENT_KIND: T/C

NC(=O)CCSCCC(N)=O : 111 % of control

// T/C (L1210 leukemia ip in BDF1 mice, survival T/C) for `C(C#CC1CCCCC1)#CC1CCCCC1` = 94 % of control

Tested on L1210 leukemia ip in BDF1 mice, survival T/C: `CCOC(=O)c1c[nH]c2ccc(OC)cc2c1=O` . Observed T/C: 96 % of control

Item CCOC(=O)C1CCC(=O)NC1=O (centres undefined) ; assay system L1210 leukemia ip in BDF1 mice, survival T/C; T/C reported as 101 % of control

----------
# System: L1210 leukemia ip in BDF1 mice, survival T/C
# TEST_DESCRIPTION: NCI In Vivo Anticancer Drug Screen. Data for tumor model L1210 Leukemia (intraperitoneal) in B6D2F1 (BDF1) mice
# CONDITION_CONTEXT: endpoint: mean survival time; dose: 200.0 mg/kg/injection; schedule: Q01DX001 (ip); vehicle: carboxymethylcellulose (CMC); higher = longer survival
Toxic doses and inconclusive results are not listed.
T/C: recorded values

Would you please look over these solved cases?
COC1OCC(OS(C)(=O)=O)C(NC(C)=O)C1OS(C)(=O)=O (configuration not stated) : 98 % of control
O=C1C(=O)c2cc(Br)ccc2-c2ccc(Br)cc21 : 100 % of control
Cc1cc(N(CCCl)CCCl)ccc1C=Nc1ccc(-c2csc(-c3ccccc3)n2)cc1 : 97 % of control
C/C(CC(=O)N1CCCCC1)=N\NC(N)=S : 103 % of control
Cc1cc(Cl)sc1Cl : 93 % of control

Briefly, T/C measured for `CC(=O)OCCC/C(=C\c1ccc2ccccc2c1)[N+](=O)[O-]` : 93 % of control

Sure, the documented T/C for `COc1ccccc1NC(=O)NCCO` is 95 % of control

Noted for `COc1cc([C@@H]2c3cc4c(cc3[C@H](O)[C@H]3COC(=O)[C@@H]23)OCO4)cc(OC)c1OC` : its T/C reads 110 % of control

Given item `CCOC(=O)CCCc1ccc(N=NN(C)CC(C)C)cc1` , the value recorded as its T/C is 102 % of control

// CCCCCC/S(C)=N\S(=O)(=O)c1ccc(Br)cc1 (configuration not stated) : T/C value = 97 % of control

Per the records, this compound ( c1csc(C2SC(c3cccs3)SC(c3cccs3)S2)c1 (configuration not stated) ) has T/C equal to 92 % of control

The compound O=C(NC(Cc1ccccc1)C(=O)N1CCCCC1)c1ccccc1 (configuration not stated) showed T/C equal to 92 % of control

----------
# Test system: L1210 leukemia ip in BDF1 mice, survival T/C
# TEST_DESCRIPTION: NCI In Vivo Anticancer Drug Screen. Data for tumor model L1210 Leukemia (intraperitoneal) in B6D2F1 (BDF1) mice
# CONDITION_CONTEXT: endpoint: mean survival time; dose: 25.0 mg/kg/injection; schedule: Q01DX009 (ip); vehicle: Klucel (hydroxypropylcellulose) (HPC); higher = longer survival
Inconclusive results and toxic doses are left out.
MEASUREMENT_KIND: T/C

OCC1OC([Se])C(O)C(O)C1O.[CH3][Sb][CH3] (stereo unspecified) : 91 % of control

Entry `Cc1cccc(C)c1NC(=O)c1c(Cl)c(Cl)c(Cl)c(Cl)c1C(=O)O` , T/C reported as 95 % of control

Just so you know, measured T/C for `COc1ccc(OC)c(/C=C/[N+](=O)[O-])c1` came out at 107 % of control

Lookup result for `COc1cccc2cc([N+](=O)[O-])oc12` ; measured T/C: 98 % of control

// field: T/C; key: `O=C(Nc1cccc(F)c1)Nc1nccs1` ; value = 89 % of control

Record `COc1ccc([N+](=O)[O-])cc1CN(C)C(C)C` . Reported T/C: 97 % of control

response.value for `Cc1ccc(C2(O)CCN(CCCC(=O)c3ccc(F)cc3)CC2)cc1` (field: T/C) = 113 % of control

Looking up `CC1(C)N=C(N)N=C(N)N1c1ccccc1I` , I found its T/C recorded as 110 % of control

The recorded T/C for entry `O=C1CN(O)C(c2ccccc2)=c2cc(Cl)ccc2=N1` equals 100 % of control

So for `Nc1nc(=S)c2[nH]c(N=Nc3ccc(S(=O)(=O)Nc4nccs4)cc3)nc2[nH]1` , the logged T/C turned out to be 100 % of control

The reported T/C of the molecule O=[N+]([O-])c1cc(S(=O)(=O)OCC2CO2)ccc1Cl (stereo unspecified) was 90 % of control
